B1: ZNF8 (parent)
chain: SLGRHKRTHTGEKPYTCSVCGKSF

variants of: B1; assay: protein stability index of a GFP-peptide fusion (GPS, HEK-293T) (PSI 1-6); higher = more stable; settings: c terminus: a fixed tail appended;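 further: lentivirally expressed fusions sorted by FACS into six bins by GFP to DsRed ratio, PSI derived from sequencing read proportions per bin multiplied by bin number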
Threshold rule: protein stability index greater than or equal to 3 is rule met; below that, rule not met.

Mutation list	Label value
C17S	rule met
K22Q	rule not met
K13L	rule not met
H5M	rule not met
R7E	rule met
S18R	rule not met
T8Q	rule met
G21V	rule not met
K22T	rule met
T10E	rule not met
G3I	rule met
L2V	rule not met
E12F	rule not met
G3Y	rule not met
K6A	rule not met
S23I	rule not met
T16R	rule not met
H5D	rule met
S18G	rule not met
